- Tested on: 953936-095-R-J2-PDC spheroids with HUVEC/MSC, viability;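 note: spheroids exposed to compounds for seven days before read-out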
- experimentSummary: Anticancer human tumor 953936-095-R-J2-PDC patient-derived cervical squamous cell carcinoma cell line growth inhibition [PI3K]; active = viability on the fitted dose curve at most 10% of control; inactive = the rest
- assaySetup: second compound 1 µM; first compound 0.00316 µM
Respond only with the outcome that fits, drawn from active, inactive

These recorded examples may help you get a feel for the data.
[
  {
    "compound": "CC(C)n1nc(-c2ccc3oc(N)nc3c2)c2c(N)ncnc21 + CC(Nc1ncnc2nc[nH]c12)c1cc2cccc(Cl)c2c(=O)n1-c1ccccc1",
    "classLabel": "inactive"
  },
  {
    "compound": "CC(=O)c1c(C)c2cnc(Nc3ccc(N4CCNCC4)cn3)nc2n(C2CCCC2)c1=O + Cc1nc(NC(=O)N2CCCC2C(N)=O)sc1-c1ccnc(C(C)(C)C(F)(F)F)c1",
    "classLabel": "inactive"
  },
  {
    "compound": "CCN1CCN(Cc2ccc(Nc3ncc(F)c(-c4cc(F)c5nc(C)n(C(C)C)c5c4)n3)nc2)CC1 + COc1c(OCCCN2CCOCC2)ccc2c3n(c(=NC(=O)c4cnc(N)nc4)nc12)CCN3",
    "classLabel": "active"
  },
  {
    "compound": "CCN1CCN(Cc2ccc(Nc3ncc(F)c(-c4cc(F)c5nc(C)n(C(C)C)c5c4)n3)nc2)CC1 + CC(Nc1ccc2c(c1)OCCn1cc(N3C(=O)OCC3C(F)F)nc1-2)C(N)=O",
    "classLabel": "inactive"
  }
]

Next compound, please.
Query: Test call, this compound: CC(C)n1nc(-c2ccc3oc(N)nc3c2)c2c(N)ncnc21 + Cc1nc(NC(=O)N2CCCC2C(N)=O)sc1-c1ccnc(C(C)(C)C(F)(F)F)c1
Reply: inactive

// data source = PubChem BioAssay AID1963971
